Catalogue of growth readings, one per entry.
Test system: UO-31 renal
Assay: NCI-60 one-dose screen, 48 h (100 = growth as untreated, 0 = no growth, -100 = all killed)
Settings: 10 µM
The panel holds about 83,000 compounds, 20% with a hit somewhere; the sample as a whole holds those more often.
Answer with a number only, understood to be in %.

Field: example entries. Status: answers known.
{"compound": "N#Cc1c(C#N)c(SSc2c(C#N)c(C#N)c(N)n2-c2ccccc2)n(-c2ccccc2)c1N", "system.under.test": "UO-31 renal", "measurement.unit": "%", "growth": 81.2}
{"compound": "COc1ccc2c(c1)N(CCO)C1=C(C(=O)OC1)C2c1ccccc1 (stereo not given)", "system.under.test": "UO-31 renal", "measurement.unit": "%", "growth": 47.1}
{"compound": "CCCCC(CCCCCC(CCCC)NCc1ccc2c(c1)OCO2)NCc1ccc2c(c1)OCO2 (stereo not given)", "system.under.test": "UO-31 renal", "measurement.unit": "%", "growth": -100}
{"compound": "Cc1cc(C)c(CCc2cc(C)c(C)cc2C)cc1C", "system.under.test": "UO-31 renal", "measurement.unit": "%", "growth": 92.2}

# input compound: COc1ccc(-c2nn(-c3cccc(NC(=O)c4ccc(N5CCOCC5)c(C(F)(F)F)c4)c3)cc2-c2ccncc2)cc1Cl ; wanted: its growth 40.9

What do you get for O=C(CSSCC(=O)c1ccc(Cl)cc1)c1ccc(Cl)cc1 ? 86.4

What do you get for O=S(=O)(NCCCNc1nccc(-c2c(-c3ccc(F)cc3)nc3sccn23)n1)c1ccc2ccccc2c1 ? 13.1

What do you get for COc1cc(CNCCCCCCN2C(=O)c3cccc4cccc(c34)C2=O)ccc1O ? 23.8

What do you get for Cc1nc2oc3ccccc3c(=O)c2cc1C(=O)NCc1ccccc1 ? 63.3

---

System: SN12C renal
Experiment: NCI-60 one-dose screen, 48 h (100 = growth as untreated, 0 = no growth, -100 = all killed)
Settings: 10 µM
Compounds without any hit were thinned out: in the full panel of roughly 83,000, 20% have a hit.
property.name: growth (%)
Answer with a number only, understood to be in %.

{"compound": "CCCCC(CCCCCC(CCCC)NCc1ccc2c(c1)OCO2)NCc1ccc2c(c1)OCO2 (centres undefined)", "growth (%)": -92.6}
{"compound": "Clc1ccccc1N=Cc1ccc2c(c1)OCO2", "growth (%)": 92}
{"compound": "CC1=C(N2CCOCC2)C(N2CCOCC2)=C(C)C(=O)C1=O", "growth (%)": 110}

# input compound: CSC1=NCCCC1 ; wanted: its growth 110

What do you get for CN(C)CCS(=O)(=O)CCN(C)C ? 97.2

What do you get for COc1ccc(OC)c(/C=C/c2nnc(Nc3ccc(Cl)cc3)o2)c1 ? 44.9

What do you get for CC(=O)c1nc2ccccc2n1CCN1CCN(C)CC1 ? 46.7

What do you get for c1ccc(CO[C@H]2CO[C@H]3[C@@H]2OC[C@H]3OCc2ccccc2)cc1 ? 102

What do you get for O=C1CC[C@@H]2CCCC[C@@H]2C1 ? 95.9

What do you get for Cc1nc2ccccc2c(N)c1-c1cc(C)c2c(C)nc3ccccc3c2n1 ? 57.9

What do you get for C#Cc1ccc(-n2c(/C=C/c3ccc(O)c(OC)c3)nc3ncccc3c2=O)cc1 ? 98.4

What do you get for ClC(Cl)(Cl)c1nc2nccnc2[nH]1 ? 98

What do you get for Cc1cc(Nc2ccc(Cl)cc2)nc(NCCCNc2ccnc3cc(Cl)ccc23)n1 ? -75.9

What do you get for CC(C)=NNc1ncnc2c1ncn2C1OC(CO)C(O)C1O (centres undefined) ? 20.5

What do you get for C#Cc1ccc(-n2c(/C=C/c3ccc4ccccc4c3)nc3ncccc3c2=O)cc1 ? 28.9

---

Test system: CAKI-1 renal
Assay: NCI-60 one-dose screen, 48 h (100 = growth as untreated, 0 = no growth, -100 = all killed)
Settings: 10 µM
The panel holds about 83,000 compounds, 20% with a hit somewhere; the sample as a whole holds those more often.
Hi! Just check whether growth is below 60%. Below gives yes (1), equal or above gives no (0).

Field: example entries. Status: answers known.
{"compound": "CCCCCCCCCCCCCCCCCCOCC(COCCOCC[N+]1(CCCCCC(=O)[O-])CCCC1)Oc1ncccn1 (configuration not stated)", "label.value": "no (0)"}
{"compound": "O=[N+]([O-])c1cccc(N=Cc2ccc3c(c2)OCO3)c1", "label.value": "no (0)"}
{"compound": "CN(C)CC(O)c1ccc2cc(Br)c3ccccc3c2c1 (configuration not stated)", "label.value": "no (0)"}
{"compound": "O=C1OCC2=C1C(c1cccc(Cl)c1)c1cc3c(cc1N2CCO)OCO3 (configuration not stated)", "label.value": "yes (1)"}
{"compound": "Cc1cc2ccccc2nc1-c1ccccc1F", "label.value": "no (0)"}
{"compound": "CN(C)C(=S)N/N=C\\C=N/NC(=S)N(C)C", "label.value": "no (0)"}
{"compound": "O=C(Nc1cccc(-n2cc(-c3ccncc3)c(-c3cc(O)cc(Cl)c3)n2)c1)c1ccc(N2CCOCC2)c(C(F)(F)F)c1", "label.value": "yes (1)"}
{"compound": "O=C(Nc1cccc(-n2cc(-c3ccncc3)c(-c3ccc(O)c(Cl)c3)n2)c1)c1cc(C(F)(F)F)cc(C(F)(F)F)c1", "label.value": "yes (1)"}

Lab note: growth threshold 60%. Does this compound come in strictly under it? CC(C)(C)NC/C(=C\c1ccccc1)C(=O)c1ccccc1 yes (1)

What do you get for N#CCCN1C/C(=C/c2ccc(Br)cc2)C(=O)/C(=C/c2ccc(Br)cc2)C1 ? yes (1)

What do you get for O=C(Nc1ccc(CN2CCc3nc4cc(O)c(O)cc4cc32)cc1)c1ccc(Cl)c(Cl)c1 ? no (0)

What do you get for COc1ccc(-c2nn(-c3cccc(NC(=O)Nc4ccc(Cl)c(C(F)(F)F)c4)c3)cc2-c2ccncc2)cc1Cl ? yes (1)

---

System: HCC-2998 colon
Test: NCI-60 one-dose screen, 48 h (100 = growth as untreated, 0 = no growth, -100 = all killed)
Conditions: 10 µM
Compounds without any hit were thinned out: in the full panel of roughly 83,000, 20% have a hit.
Catalogue of growth readings, one per entry.
Answer with a number only, understood to be in %.

# input compound: CCCCCCN1CCN(Cc2ccc(N(CC)CC)cc2)C(=O)C1=O ; wanted: its growth 52

---

Tested on: DU-145 prostate
Test: NCI-60 one-dose screen, 48 h (100 = growth as untreated, 0 = no growth, -100 = all killed)
Settings: 10 µM
This is part of a sample that, as a whole, favours compounds with a hit. Of some 83,000 tested, about 20% had one in any assay.
property.name: growth (%)
Answer with a number only, understood to be in %.

{"compound": "COc1ccc(-c2nc3sc(-c4ccccc4)c(-c4ccccc4)n3c2/C=C/C(=O)c2ccccn2)cc1", "obs.value": 96.7}
{"compound": "Cc1ccc2oc3nc(C)c(C(=O)NCc4ccccc4)cc3c(=O)c2c1", "obs.value": 86.9}
{"compound": "N#CSCC1CC(O)(c2ccccc2)CC(c2ccc(Cl)cc2)O1 (configuration not stated)", "obs.value": 33}
{"compound": "CC12O[C@H](C[C@@H](OC(=O)c3ccccc3)[C@H]1O)n1c3ccccc3c3c4c(c5c6ccccc6n2c5c31)C(=O)NC4=O", "obs.value": 58.2}
{"compound": "COc1ccc(-c2nn(-c3cccc(NC(=O)c4cccc(C(F)(F)F)c4)c3)cc2-c2ccncc2)cc1Cl", "obs.value": 50.5}
{"compound": "Cc1ccc(NC(=O)Nc2cccnc2)cc1NC(=O)Nc1cccnc1", "obs.value": 98.2}
{"compound": "CC(=O)[C@H]1CC[C@H]2[C@@H]3CCC4=CC(=O)C=C[C@]4(C)[C@H]3CC[C@]12C", "obs.value": 108}
{"compound": "N=C1c2nc3n(c2C(=O)c2nc4n(c21)CCCC4)CCCC3", "obs.value": -93.9}
{"compound": "CCCCC/C=C/C(=O)CCc1ccc(O)c(OC)c1", "obs.value": 76.9}
{"compound": "C[N+](C)(C)c1ncnc2nc[nH]c12", "obs.value": 116}

# input compound: Nc1ccc2c(c1)Cc1cc(N)c(Br)cc1-2 ; wanted: its growth 121

What do you get for O=C1/C(=C/c2ccc([N+](=O)[O-])o2)Oc2ccccc21 ? -8.6

What do you get for O=C(CC(NC(=O)OCc1ccccc1)C(=O)OCc1ccccc1)OCc1ccccc1 (configuration not stated) ? 111

What do you get for Clc1ccc(-c2cn(-c3ccccc3)c(-c3ccccc3)n2)c(Cl)c1 ? -89.7

What do you get for Cc1cccc2c1O/C(=C\c1ccc([N+](=O)[O-])o1)C2=O ? -62.7

What do you get for CCN(CC)Cc1cc(Nc2ccnc3cc(Cl)ccc23)ccc1OC ? 107

What do you get for CCN(CC)CCOc1nc2ccc(OC)cc2c2c1-c1ccc(OC)cc1C2=O ? -70.3

What do you get for COc1ccc(-c2nc(-c3nc4cc(Cl)c(Cl)cc4[nH]3)c3ccccn23)cc1 ? 47.5

What do you get for COc1cccc(NC(=O)c2sc3nc4c(cc3c2N)C(O)CCC4)c1 (configuration not stated) ? -10.9
